Molecular target: Human immunodeficiency virus type 1 protease (Human immunodeficiency virus 1, UniProt Q72874)
Assay: Inhibitory activity against HIV-1 protease
MEASURE_NAME: pKi
Scale for pKi: -log10 of concentration given in mol/L; no unit attached.

Would you please look over these solved cases?
What value of pKi has been reported for the following compound? O=C(Nc1ccccn1)c1cccc(CN2C(=O)N(Cc3cccc(C(=O)Nc4ccccn4)c3)[C@H](Cc3ccccc3)[C@H](O)[C@@H](O)[C@H]2Cc2ccccc2)c1
10.37

What value of pKi has been reported for the following compound? CC(C)(C)NC(=O)c1cccc(CN2C(=O)N(Cc3cccc(C(=O)NC(C)(C)C)c3)[C@H](Cc3ccccc3)[C@H](O)[C@@H](O)[C@H]2Cc2ccccc2)c1
8.62

What value of pKi has been reported for the following compound? CNC(=O)c1cccc(CN2C(=O)N(Cc3cccc(C(=O)NC)c3)[C@H](Cc3ccccc3)[C@H](O)[C@@H](O)[C@H]2Cc2ccccc2)c1 (stereo in doubt; 6)
10.18

What value of pKi has been reported for the following compound? Cc1coc(NC(=O)c2cccc(CN3C(=O)N(Cc4cccc(C(=O)Nc5nc(C)co5)c4)[C@H](Cc4ccccc4)[C@H](O)[C@@H](O)[C@H]3Cc3ccccc3)c2)n1
10.19

What value of pKi has been reported for the following compound? NC(=O)c1cccc(CN2C(=O)N(Cc3cccc(C(N)=O)c3)[C@H](Cc3ccccc3)[C@H](O)[C@@H](O)[C@H]2Cc2ccccc2)c1
10.41

Further cases:
What value of pKi has been reported for the following compound? CCCCNC(=O)c1cccc(CN2C(=O)N(Cc3cccc(C(=O)NCCCC)c3)[C@H](Cc3ccccc3)[C@H](O)[C@@H](O)[C@H]2Cc2ccccc2)c1
9.37

What value of pKi has been reported for the following compound? Cc1ccc(NC(=O)c2cccc(CN3C(=O)N(Cc4cccc(C(=O)Nc5ccc(C)cn5)c4)[C@H](Cc4ccccc4)[C@H](O)[C@@H](O)[C@H]3Cc3ccccc3)c2)nc1
10.96

What value of pKi has been reported for the following compound? Cc1cccnc1NC(=O)c1cccc(CN2C(=O)N(Cc3cccc(C(=O)Nc4ncccc4C)c3)[C@H](Cc3ccccc3)[C@H](O)[C@@H](O)[C@H]2Cc2ccccc2)c1
9.59

What value of pKi has been reported for the following compound? O=C(Nc1nnc(C(F)(F)F)s1)c1cccc(CN2C(=O)N(Cc3cccc(C(=O)Nc4nnc(C(F)(F)F)s4)c3)[C@H](Cc3ccccc3)[C@H](O)[C@@H](O)[C@H]2Cc2ccccc2)c1
9.74

What value of pKi has been reported for the following compound? CCNC(=O)c1cccc(CN2C(=O)N(Cc3cccc(C(=O)NCC)c3)[C@H](Cc3ccccc3)[C@H](O)[C@@H](O)[C@H]2Cc2ccccc2)c1
9.68

What value of pKi has been reported for the following compound? CONC(=O)c1cccc(CN2C(=O)N(Cc3cccc(C(=O)NOC)c3)[C@H](Cc3ccccc3)[C@H](O)[C@@H](O)[C@H]2Cc2ccccc2)c1
10.35

What value of pKi has been reported for the following compound? O=C(Nc1ccncc1)c1cccc(CN2C(=O)N(Cc3cccc(C(=O)Nc4ccncc4)c3)[C@H](Cc3ccccc3)[C@H](O)[C@@H](O)[C@H]2Cc2ccccc2)c1
9.39

###

Molecular target: Human immunodeficiency virus type 1 protease (Human immunodeficiency virus 1, UniProt Q72874)
Assay: Inhibitory activity against HIV-1 protease
Catalogue of pKi readings, one per entry.
Scale for pKi: -log10 of concentration given in mol/L; no unit attached.

What value of pKi has been reported for the following molecule? O=C(NO)c1cccc(CN2C(=O)N(Cc3cccc(C(=O)NO)c3)[C@H](Cc3ccccc3)[C@H](O)[C@@H](O)[C@H]2Cc2ccccc2)c1
10.70

What value of pKi has been reported for the following molecule? O=C(Nc1nncs1)c1cccc(CN2C(=O)N(Cc3cccc(C(=O)Nc4nncs4)c3)[C@H](Cc3ccccc3)[C@H](O)[C@@H](O)[C@H]2Cc2ccccc2)c1
9.96

Next molecule, pKi to be filled in.
What value of pKi has been reported for the following molecule? N#CCNC(=O)c1cccc(CN2C(=O)N(Cc3cccc(C(=O)NCC#N)c3)[C@H](Cc3ccccc3)[C@H](O)[C@@H](O)[C@H]2Cc2ccccc2)c1
10.20
